# Tested on: SK-N-MM (SKNMM-MYCN, doxycycline-inducible MYCN)
# ASSAY COMMENT: area under dose-response curve (CellTiter-Glo viability normalised to plate controls) (AUC (arbitrary units)); higher = more loss of viability; extreme values may be limits of the assay
# TEST SETTINGS: MYCN induction (doxycycline): no doxycycline (MYCN not induced); time after drugging: 8 days

# STRUCTURE AS SMILES, area under dose-response curve
data = [
    ("CO[C@H]1C[C@@H]2CC[C@@H](C)[C@@](O)(O2)C(=O)C(=O)N2CCCC[C@H]2C(=O)O[C@H]([C@H](C)C[C@@H]2CC[C@@H](OC(=O)C(C)(CO)CO)[C@H](OC)C2)CC(=O)[C@H](C)/C=C(\\C)[C@@H](O)[C@@H](OC)C(=O)[C@H](C)C[C@H](C)/C=C/C=C/C=C/1C", 43.4),
    ("Nc1nccc2c1ncn2[C@@H]1C=C(CO)[C@@H](O)[C@H]1O", 40.9),
    ("CC(C)C[C@H](NC(=O)[C@H](CCc1ccccc1)NC(=O)CN1CCOCC1)C(=O)N[C@@H](Cc1ccccc1)C(=O)N[C@@H](CC(C)C)C(=O)[C@@]1(C)CO1", 398),
    ("O=C(CCCCCCNC(=O)c1cnc(N(c2ccccc2)c2ccccc2)nc1)NO", 76.4),
    ("O=c1[nH]c(=O)n([C@H]2C[C@H](O)[C@@H](CO)O2)cc1/C=C/Br", 0.883),
    ("Cc1cnc(Nc2ccc(OCCN3CCCC3)cc2)nc1Nc1cccc(S(=O)(=O)NC(C)(C)C)c1", 151),
    ("Cc1cccc(-c2nn3c(c2-c2ccnc4ccc(C(N)=O)cc24)CCC3)n1", 0),
]

----------
# System: SK-N-MM (SKNMM-MYCN, doxycycline-inducible MYCN)
# ASSAY COMMENT: area under dose-response curve (CellTiter-Glo viability normalised to plate controls) (AUC (arbitrary units)); higher = more loss of viability; extreme values may be limits of the assay
# TEST SETTINGS: MYCN induction (doxycycline): +doxycycline (MYCN induced); time after drugging: 3 days
Param threshold (30) applies to area under dose-response curve; output 1 when value >= threshold, -1 when value < threshold.

# COMPOUND, ASSIGNED CLASS
data = [
    ("O=C(NOC[C@H](O)CO)c1ccc(F)c(F)c1Nc1ccc(I)cc1F", -1),
    ("Nc1nc2[nH]cnc2c(=S)[nH]1 [THIOGUANINE]", -1),
    ("CC(C)(C)c1nc(-c2cccc(NS(=O)(=O)c3c(F)cccc3F)c2F)c(-c2ccnc(N)n2)s1 [DABRAFENIB]", -1),
    ("CCC1=C[C@@H]2CN(C1)Cc1c([nH]c3ccccc13)[C@@](C(=O)OC)(c1cc3c(cc1OC)N(C)[C@H]1[C@@](O)(C(=O)OC)[C@H](OC(C)=O)[C@]4(CC)C=CCN5CC[C@]31[C@@H]54)C2 [VINORELBINE]", 1),
    ("Cn1nnc2c(C(N)=O)ncn2c1=O [TEMOZOLOMIDE]", -1),
    ("CC[C@@]1(O)C(=O)OCc2c1cc1n(c2=O)Cc2cc3c(CN(C)C)c(O)ccc3nc2-1 [TOPOTECAN]", 1),
    ("CS(=O)(=O)c1ccc(C(=O)Nc2ccc(Cl)c(-c3ccccn3)c2)c(Cl)c1 [VISMODEGIB]", -1),
    ("CC/C(=C(\\c1ccccc1)c1ccc(OCCN(C)C)cc1)c1ccccc1 [TAMOXIFEN]", -1),
]

----------
# Tested on: SK-N-MM (SKNMM-MYCN, doxycycline-inducible MYCN)
# ASSAY COMMENT: area under dose-response curve (CellTiter-Glo viability normalised to plate controls) (AUC (arbitrary units)); higher = more loss of viability; extreme values may be limits of the assay
# TEST SETTINGS: MYCN induction (doxycycline): no doxycycline (MYCN not induced); time after drugging: 8 days
Mark rule not met for area under dose-response curve values under 70, and rule met for everything at or above.

# STRUCTURE AS SMILES, TESTED ON, ASSIGNED CLASS
rows = [
    ("CNC(=O)c1cc(Oc2ccc(NC(=O)Nc3ccc(Cl)c(C(F)(F)F)c3)cc2)ccn1", "SK-N-MM (SKNMM-MYCN, doxycycline-inducible MYCN)", "rule not met"),
    ("CC(C)C[C@H](NC(=O)[C@H](Cc1ccccc1)NC(=O)c1cnccn1)B(O)O", "SK-N-MM (SKNMM-MYCN, doxycycline-inducible MYCN)", "rule met"),
    ("Cc1nc(=O)c2cc(CN(C)c3ccc(C(=O)N[C@@H](CCC(=O)O)C(=O)O)s3)ccc2[nH]1", "SK-N-MM (SKNMM-MYCN, doxycycline-inducible MYCN)", "rule not met"),
    ("C=C1C[C@@H]2CC[C@@]34C[C@H]5O[C@H]6[C@@H](O3)[C@H]3O[C@H](CC[C@@H]3O[C@H]6[C@H]5O4)CC(=O)C[C@@H]3[C@@H](OC)[C@@H](C[C@H](O)CN)O[C@H]3C[C@H]3O[C@@H](CC[C@@H]1O2)C[C@@H](C)C3=C", "SK-N-MM (SKNMM-MYCN, doxycycline-inducible MYCN)", "rule not met"),
    ("O=C(NOC[C@H](O)CO)c1ccc(F)c(F)c1Nc1ccc(I)cc1F", "SK-N-MM (SKNMM-MYCN, doxycycline-inducible MYCN)", "rule met"),
    ("CC[C@@]1(O)C(=O)OCc2c1cc1n(c2=O)Cc2cc3c(CN(C)C)c(O)ccc3nc2-1", "SK-N-MM (SKNMM-MYCN, doxycycline-inducible MYCN)", "rule met"),
]

----------
# Test system: SK-N-MM (SKNMM-MYCN, doxycycline-inducible MYCN)
# ASSAY COMMENT: area under dose-response curve (CellTiter-Glo viability normalised to plate controls) (AUC (arbitrary units)); higher = more loss of viability; extreme values may be limits of the assay
# TEST SETTINGS: MYCN induction (doxycycline): no doxycycline (MYCN not induced); time after drugging: 8 days

# COMPOUND, area under dose-response curve
rows = [
    ("C/C(=C\\c1csc(C)n1)[C@@H]1C[C@@H]2O[C@]2(C)CCC[C@H](C)[C@H](O)[C@@H](C)C(=O)C(C)(C)[C@@H](O)CC(=O)N1 [IXABEPILONE]", 138),
    ("N[C@H](CCC(=O)N[C@@H](Cc1c[nH]c2ccccc12)C(=O)O)C(=O)O", 12.7),
    ("Clc1ccc(C(c2ccccc2Cl)C(Cl)Cl)cc1 (configuration not stated)", 0),
    ("COc1cc2nc(N3CCCN(C)CC3)nc(NC3CCN(Cc4ccccc4)CC3)c2cc1OC", 243),
    ("Cn1cnc2c(F)c(Nc3ccc(Br)cc3Cl)c(C(=O)NOCCO)cc21", 18.9),
    ("CC[C@]1(O)C[C@@H]2CN(CCc3c([nH]c4ccccc34)[C@@](C(=O)OC)(c3cc4c(cc3OC)N(C)[C@H]3[C@@](O)(C(=O)OC)[C@H](OC(C)=O)[C@]5(CC)C=CCN6CC[C@]43[C@@H]65)C2)C1", 177),
    ("CCN(CCO)CCCC(C)Nc1ccnc2cc(Cl)ccc12 (configuration not stated) [HYDROXYCHLOROQUINE]", 0),
]

----------
# System: SK-N-MM (SKNMM-MYCN, doxycycline-inducible MYCN)
# ASSAY COMMENT: area under dose-response curve (CellTiter-Glo viability normalised to plate controls) (AUC (arbitrary units)); higher = more loss of viability; extreme values may be limits of the assay
# TEST SETTINGS: MYCN induction (doxycycline): no doxycycline (MYCN not induced); time after drugging: 8 days

# MOLECULE, area under dose-response curve
rows = [
    ("Cc1sc2c(c1C)C(c1ccc(Cl)cc1)=N[C@@H](CC(N)=O)c1nnc(C)n1-2 [CPI-203]", 30.9),
    ("CCOC(=O)c1ccc(C#Cc2ccc3c(c2)C(C)(C)CCS3)nc1 [TAZAROTENE]", 0.284),
    ("N#CC[C@H](C1CCCC1)n1cc(-c2ncnc3[nH]ccc23)cn1 [RUXOLITINIB]", 100),
    ("Cn1nccc1Nc1nccc(-c2ccn([C@H](CO)c3ccc(Cl)c(F)c3)c(=O)c2)n1 [GDC-0994]", 0),
    ("CN1CCC(CNc2ccc3ncc(-c4cccc(OC(F)(F)F)c4)n3n2)CC1 [SGI-1776]", 138),
    ("O=C(O)CCCc1ccc(N(CCCl)CCCl)cc1 [CHLORAMBUCIL]", 2.34),
    ("Cc1c(N)nc([C@H](CC(N)=O)NC[C@H](N)C(N)=O)nc1C(=O)N[C@H](C(=O)N[C@H](C)[C@@H](O)[C@H](C)C(=O)N[C@H](C(=O)NCCc1nc(-c2nc(C(=O)NCCC[S+](C)C)cs2)cs1)[C@@H](C)O)[C@@H](OC1OC(CO)C(O)C(O)C1OC1OC(CO)C(O)C(OC(N)=O)C1O)c1cnc[nH]1 (some centres not stated) [BLEOMYCIN]", 0),
]
